tested system: TYK2-JH2 (Homo sapiens, UniProt P29597)
Construct: TYK JH2 enzyme mix (ChemPartner: CP20210818A-BV); purchased ChemPartner CP20210818A-BV
Sequence (P29597 589-875 limits assumed): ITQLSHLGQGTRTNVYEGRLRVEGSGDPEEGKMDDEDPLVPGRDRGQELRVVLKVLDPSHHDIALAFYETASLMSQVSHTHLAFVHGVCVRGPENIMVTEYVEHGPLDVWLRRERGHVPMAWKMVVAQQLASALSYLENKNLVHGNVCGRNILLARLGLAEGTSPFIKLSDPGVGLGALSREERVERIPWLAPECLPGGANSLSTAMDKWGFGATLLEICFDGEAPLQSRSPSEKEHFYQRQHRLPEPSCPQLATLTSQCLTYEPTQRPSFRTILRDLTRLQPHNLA
test description: TYK2-JH2 HTRF binding assay (ligand efficiency)
reported conditions: calculated from binding-assay IC50 (Equation 1)
observed property: Ligand Efficiency

> print(dat)
                                   molecule                            tested.system      observed.value
1  COc1ccnc(Nc2cc(Nc3cccc(C)n3)ncn2)c1S(C)(=O)=O [Compound 65]  TYK2-JH2 (Homo sapiens, UniProt P29597)    ††† (†††: >0.39)
2  Cc1ccnc(Nc2cc(Nc3ccccc3S(C)(=O)=O)ncn2)c1 [Compound 44]  TYK2-JH2 (Homo sapiens, UniProt P29597)    ††† (†††: >0.39)
3  CS(=O)(=O)c1ccccc1Nc1cc(Nc2ccc(N3CCOCC3)cn2)ncn1 [Compound 42]  TYK2-JH2 (Homo sapiens, UniProt P29597)    ††† (†††: >0.39)
4  Cc1cccc(Nc2cc(Nc3ccncc3C(N)=O)ncn2)n1 [Compound 51]  TYK2-JH2 (Homo sapiens, UniProt P29597)    ††† (†††: >0.39)
5  CC(NC1COC1)c1ccc(Nc2cc(Nc3ccccc3S(C)(=O)=O)ncn2)nc1 (stereo in doubt) [Compound 40]  TYK2-JH2 (Homo sapiens, UniProt P29597)    ††† (†††: >0.39)
6  CS(=O)(=O)c1cccnc1Nc1cc(Nc2ccc3c(n2)CCCC3N2CC3(COC3)C2)ncn1 (stereo in doubt) [Compound 5]  TYK2-JH2 (Homo sapiens, UniProt P29597)  †† (††: 0.37-0.39)
7  C[C@H](c1ccc(Nc2cc(Nc3ncccc3S(C)(=O)=O)ncn2)nc1)N1CC2(COC2)C1 [Compound 17]  TYK2-JH2 (Homo sapiens, UniProt P29597)  †† (††: 0.37-0.39)

----------
test description: Plasma and tissue distribution in SD rats
Assay type: in vivo
reported conditions: Sprague-Dawley, rat, small intestine, oral, SD rat, Small Intestine; read-out: Tissue/Plasma Ratio (AUCinf)
observed property: Kp

> print(dat)
                                   compound  observed.value
1  C[C@@H](c1ccc(Nc2cc(Nc3ncc(F)cc3S(C)(=O)=O)ncn2)nc1)N1CC2(COC2)C1 [Compound 2]              27
2  C[C@@H](c1ccc(Nc2cc(Nc3ncccc3S(C)(=O)=O)ncn2)nc1)N1CC2(COC2)C1 [Compound 1]              21

----------
test description: Plasma and tissue distribution in SD rats
Assay type: in vivo
reported conditions: Sprague-Dawley; plasma, male SD rat, PO 10 mg/kg
observed property: half-life (h)

> print(dat)
                                   compound  observed.value
1  C[C@@H](c1ccc(Nc2cc(Nc3ncccc3S(C)(=O)=O)ncn2)nc1)N1CC2(COC2)C1 [Compound 1]            2.75

----------
test description: Plasma and tissue distribution in SD rats
Type: in vivo
reported conditions: female SD rat, PO 10 mg/kg, Bladder
observed property: Tmax (h)

> print(dat)
                                 mol.smiles  observed.value
1  C[C@@H](c1ccc(Nc2cc(Nc3ncccc3S(C)(=O)=O)ncn2)nc1)N1CC2(COC2)C1               2
